# Lookup of reported IC50 keyed by entry
Target Desc: PI3K (Homo sapiens, UniProt P42336)
Construct: PI3 Kinase α IC50; other: PI3 Kinase α; other: PI3 Kinase α isoform, fluorescence polarization
Sequence (P42336 whole entry, canonical isoform): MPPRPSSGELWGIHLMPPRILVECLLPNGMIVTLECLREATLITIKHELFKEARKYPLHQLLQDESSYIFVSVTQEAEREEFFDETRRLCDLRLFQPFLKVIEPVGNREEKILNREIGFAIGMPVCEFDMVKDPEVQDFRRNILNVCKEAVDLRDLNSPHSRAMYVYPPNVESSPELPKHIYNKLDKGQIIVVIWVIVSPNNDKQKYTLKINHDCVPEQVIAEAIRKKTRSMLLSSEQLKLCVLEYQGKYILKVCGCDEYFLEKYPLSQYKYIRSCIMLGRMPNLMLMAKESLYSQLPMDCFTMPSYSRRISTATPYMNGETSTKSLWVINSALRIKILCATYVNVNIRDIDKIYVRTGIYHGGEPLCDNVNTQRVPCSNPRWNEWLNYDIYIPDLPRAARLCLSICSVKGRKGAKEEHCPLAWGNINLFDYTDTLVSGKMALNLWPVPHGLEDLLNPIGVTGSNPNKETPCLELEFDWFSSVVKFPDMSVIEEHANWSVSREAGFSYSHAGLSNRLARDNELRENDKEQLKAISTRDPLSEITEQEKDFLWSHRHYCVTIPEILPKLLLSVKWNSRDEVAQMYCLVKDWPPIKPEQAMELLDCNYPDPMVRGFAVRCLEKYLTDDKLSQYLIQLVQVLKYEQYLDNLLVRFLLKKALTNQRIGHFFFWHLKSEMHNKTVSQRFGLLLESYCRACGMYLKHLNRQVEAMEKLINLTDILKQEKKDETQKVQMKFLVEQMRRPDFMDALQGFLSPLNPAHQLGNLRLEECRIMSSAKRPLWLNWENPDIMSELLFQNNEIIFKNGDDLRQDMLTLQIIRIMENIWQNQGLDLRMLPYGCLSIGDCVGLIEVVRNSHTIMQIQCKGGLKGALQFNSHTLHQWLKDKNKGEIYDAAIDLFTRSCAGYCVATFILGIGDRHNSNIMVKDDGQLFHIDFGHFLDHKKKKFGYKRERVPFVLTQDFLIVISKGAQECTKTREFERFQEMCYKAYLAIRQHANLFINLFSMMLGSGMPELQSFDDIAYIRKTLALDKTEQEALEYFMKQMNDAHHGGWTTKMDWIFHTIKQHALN
Test Description: Fluorescence polarization assay for PI3K
Type: biochemical
Experimental Setup: PI3 Kinase α; read-out: PI3 Kinase α IC50
Give a bare numeral; the unit µM is implied.

// solved cases for IC50 follow
{"columns": ["Smiles Entry", "Target Desc", "Units Symbol", "IC50"],
 "data": [
  ["CCn1ncc2c(N3CC4CCC(C3)O4)nc(-c3ccc(NC(=O)NCCF)cc3)nc21", "PI3K (Homo sapiens, UniProt P42336)", "µM", 0.973],
  ["O=C(Nc1ccc(-c2nc(N3CC4CCC(C3)O4)c3cnn(CCF)c3n2)cc1)OCCO", "PI3K (Homo sapiens, UniProt P42336)", "µM", 2.9],
  ["O=C(Nc1ccc(-c2nc(N3C[C@@H]4C[C@H]3CO4)c3cnn(CC(F)(F)F)c3n2)cc1)OCCO", "PI3K (Homo sapiens, UniProt P42336)", "µM", 6.14]
]}

Would you kindly look at the next entry?
Report IC50 for "CCn1ncc2c(N3CC4CCC(C3)O4)nc(-c3ccc(NC(=O)NC4CCCCC4)cc3)nc21" please. 5.94

###

Target Desc: Human mTOR (FLAG-TOR) (Homo sapiens, UniProt P42345)
Construct: FLAG
Test Description: Human mTOR kinase assay with purified enzyme, DELFIA format
Assay type: biochemical
IC50: recorded values
Hi! Could you send only the number? It should be in pM, unit omitted.

Solved entries (count: 2):
{"columns": ["Compound", "Units Symbol", "IC50"],
 "data": [
  ["COC(=O)N1CCC(n2ncc3c(N4CC5CCC(C4)O5)nc(-c4ccc(NC(=O)NCCN)cc4)nc32)CC1", "pM", 3150],
  ["CN(C)CCn1ncc2c(N3CC4CCC(C3)O4)nc(-c3ccc(NC(=O)Nc4ccc(N5CCN(C)CC5)cc4)cc3)nc21", "pM", 4850]
]}

Now consider a different compound.
Which IC50 reading was recorded for the compound "O=C(Nc1ccccc1)Nc1ccc(-c2nc(N3CC4CCC(C3)O4)c3cnn(C4CCN(Cc5cccnc5)CC4)c3n2)cc1" ? 610

###

pIC50 values by entry
Target Desc: Human mTOR (FLAG-TOR) (Homo sapiens)
Construct: FLAG
Test Description: Human mTOR kinase assay with purified enzyme, DELFIA format
Assay type: biochemical
pIC50 is a log-scale quantity: -log10 of the concentration expressed in molar.

Below are worked cases with known answers.
{"columns": ["Compound", "pIC50"],
 "data": [
  ["CNC(=O)Nc1ccc(-c2nc(N3CC4CCC(C3)O4)c3cnn(C4CCC(OC)(OC)CC4)c3n2)cc1 [Example 150]", 9.13],
  ["CCn1ncc2c(N3CC4CCC(C3)O4)nc(-c3ccc(NC(=O)NCCCN(C)C)cc3)nc21 [Example 177]", 7.16],
  ["CCn1ncc2c(N3CC4CCC(C3)O4)nc(-c3ccc(NC(=O)Nc4ccc(Cl)cc4)cc3)nc21 [Example 188]", 8.96],
  ["O=C(Nc1ccc(-c2nc(N3C4CCC3COC4)c3cnn(CC(F)(F)F)c3n2)cc1)Nc1ccc(N2CCOCC2)cc1 [Example 273]", 9.62],
  ["CC(C)OC(=O)N1CCC(n2ncc3c(N4CC5CCC(C4)O5)nc(-c4ccc(NC(=O)Nc5cccnc5)cc4)nc32)CC1 [Example 72]", 9.70]
]}

Quick check: pIC50 of COC(=O)Nc1ccc(-c2nc(N3CC4CCC(C3)O4)c3cnn(C4CCN(C(=O)OC(C)C)CC4)c3n2)cc1 [Example 74] ? 8.35

# get_value(readout='pIC50', item= OCCNc1ccc(-c2nc(N3CC4CCC(C3)O4)c3cnn(C4CCC5(CC4)OCCO5)c3n2)cc1 [Example 132] ) 7.81

Bench note: what pIC50 did O=C(Nc1ccc(-c2nc(N3CC4CCC(C3)O4)c3cnn(CC(F)(F)F)c3n2)cc1)Nc1cccnc1 [Example 4] show? 9.74

Which measured pIC50 value corresponds to Cn1ncc2c(N3CC4CCC(C3)O4)nc(-c3ccc(NC(=O)Nc4ccc(S(=O)(=O)CCN5CCCCC5)cc4)cc3)nc21 [Example 240] ? 9.52

pIC50 for CC(C)n1ncc2c(N3CC4CCC(C3)O4)nc(-c3ccc(NC(=O)NC4CC4)cc3)nc21 [Example 142] ? 9.70
